biological target: human glucagon receptor (GCGR) (human, UniProt P47871 26-477); assay: cell-based or functional assay
Sequence (P47871 26-477): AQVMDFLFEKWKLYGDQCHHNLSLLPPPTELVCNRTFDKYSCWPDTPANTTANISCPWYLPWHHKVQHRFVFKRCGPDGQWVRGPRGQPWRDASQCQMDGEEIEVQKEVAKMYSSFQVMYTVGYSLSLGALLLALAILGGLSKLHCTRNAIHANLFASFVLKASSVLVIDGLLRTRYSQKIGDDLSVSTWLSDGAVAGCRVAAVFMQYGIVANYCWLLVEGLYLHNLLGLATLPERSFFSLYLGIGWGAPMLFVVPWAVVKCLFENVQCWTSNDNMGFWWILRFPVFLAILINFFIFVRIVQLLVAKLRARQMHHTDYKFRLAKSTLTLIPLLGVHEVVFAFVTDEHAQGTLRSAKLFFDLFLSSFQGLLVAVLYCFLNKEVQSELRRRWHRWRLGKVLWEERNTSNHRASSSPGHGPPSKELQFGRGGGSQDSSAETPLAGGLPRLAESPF
Bridges are numbered along the chain shown (N, C = ends). Primed or numbered codes have the meaning given here. Where no end group is shown, it is not given here. [ ]: non-standard residue; d: D form. L4″ = octadecanedioic acid-PEG-ornithine staple, joins two Cys through thioethers; L1 = C4 bis(bromoacetamide) staple without lipid; L5 = C18 diacid-Lys-PEG2-ornithine staple; L2 = myristic acid-PEG-ornithine staple; L6 = made as L5 but on Rink amide resin; L11 = not defined here; L8 = not defined here; L9 = not defined here
readout name: EC50, CRE-luciferase reporter in HEK293-GCGR-CRE cells
The answer consists of two parts: a number and, after it, its unit.

Working through the 5 binders below one at a time, give EC50, CRE-luciferase reporter in HEK293-GCGR-CRE cells for each.
1. H[dS]QGTFTSDYSKYLDSCAAHDFVCWLLRA (linker 17-24 via L2) [mTA 28: GLP-1/Glucagon (A) and L2]
2. H[dS]QGTFTSDYSKYLDECAAKEFICWLLRA (linker 17-24 via L2) [mTA 30: GLP-1/Glucagon (B) and L2]
3. H[dS]QGTFTSDYSKYLDECAAKEFICWLMNTKRNRNNIA (linker 17-24 via L11; reading uncertain; also: printed as HsQGTFTSDYSKYLDEXAAKEFIXWLMNTKRNRNNIA) [mTA 24: OXM (B) and L11]
4. H[dS]QGTFTSDYSKYLDECAAKEFICWLLRA (linker 17-24 via L1) [mTA 29: GLP-1/Glucagon (B) and L1]
5. H[dS]QGTFTSDYSKYLDECAAKEFICWLLNGGPSSGAPPPS (linker 17-24 via L5) [mTA 38: GLP-1/Glucagon (D) and L5]

Response line:
100 pM
50 pM
3000 pM
30 pM
400 pM

Working through the 4 binders below one at a time, give EC50, CRE-luciferase reporter in HEK293-GCGR-CRE cells for each.
1. H[dS]QGTFTSDYSKYLDECAAKEFICWLMNTKRNRNNIA (linker 17-24 via L8; reading uncertain; also: printed as HsQGTFTSDYSKYLDEXAAKEFIXWLMNTKRNRNNIA) [mTA 21: OXM (B) and L8]
2. H[dS]QGTFTSDYSKYLDECAAKEFICWLLRAGPSSGAPPPS (linker 17-24 via L6) [mTA 36: GLP-1/Glucagon (C) and L6]
3. H[dS]QGTFTSDYSKYLDECAAKEFICWLMNTKRNRNNIA (linker 17-24 via L9; not fully specified; printed as HsQGTFTSDYSKYLDEXAAKEFIXWLMNTKRNRNNIA; reading uncertain) [mTA 22: OXM (B) and L9]
4. H[dS]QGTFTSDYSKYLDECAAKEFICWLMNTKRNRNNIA (linker 17-24 via L4″) [mTA 17: OXM (B) and L4]

Response line:
700 pM
500 pM
14000 pM
3000 pM
